Values compiled from the OPERA property sets (Mansouri et al. 2018).

Class (by melting point) -- bottom bin (below -4 °C), middle bin (-4 °C to below 200 °C), top bin (200 °C or more)

CC(CC(C)(C)O)OC(O)C(Cl)(Cl)Cl (stereo not given)	middle bin

Which category fits this record: Cc1cccc(Nc2ccccc2C(=O)O)c1C
top bin

Please do the same for Clc1cc2oc3ccc(Cl)c(Cl)c3c2cc1Cl as well.
top bin

Could you do the same for N#CCC(=O)NN , please?
middle bin

Entry to check: OCCCCCCCCCCF
middle bin

Consider next the compound O=C(O)CCC(=O)c1ccc(-c2ccccc2)cc1 in the same way.
middle bin

----------
recorded-metric: log10 vapour pressure (mmHg)
Answer as a number with no unit attached.

Please review the entries below; each comes with its answer.
CCc1cccc(C)c1C	-0.206
CSc1nc(NC(C)C)nc(NC(C)C)n1	-5.91
C#CCC	3.15

Which log10 vapour pressure (mmHg) is listed for CCc1cccc(O)c1 ?
-1.3

What about Clc1ccc(Cl)c(-c2c(Cl)cccc2Cl)c1 ?
-4.65

Consider next the molecule CC1C=CCCC1 (stereo unspecified) in the same way.
1.54

Same question, CCOP(=S)(Oc1cnc(C(C)(C)C)nc1)OC(C)C (stereo unspecified) this time
-4.43

// repeat for Cc1ccc(Cl)c(Cl)c1 and report
-0.502

Here is the next molecule: CCOC(=O)CC(C)C
0.919

Here is the next molecule: CNN
1.7

Queued: Nc1cnn(-c2ccccc2)c(=O)c1Cl
-6.35

Likewise for CCOC(=O)CCCCCC(=O)OCC ?
-2.51

What do you get for Brc1cccc(Oc2ccc(Br)c(Br)c2Br)c1 ?
-5.66

And then COP(N)(=O)SC (stereo unspecified) , what is it?
-4.45

Another molecule to look at: ClC(Cl)=C(Cl)C(Cl)=C(Cl)Cl
-0.658

Next up: Clc1cc(Cl)c2c(c1)oc1cc(Cl)cc(Cl)c12
-7.73
